- SYSTEM_UNDER_TEST: human androgen receptor (Homo sapiens, UniProt P10275)
- Construct: expressed in transfected cells
- Sequence (P10275 1-920): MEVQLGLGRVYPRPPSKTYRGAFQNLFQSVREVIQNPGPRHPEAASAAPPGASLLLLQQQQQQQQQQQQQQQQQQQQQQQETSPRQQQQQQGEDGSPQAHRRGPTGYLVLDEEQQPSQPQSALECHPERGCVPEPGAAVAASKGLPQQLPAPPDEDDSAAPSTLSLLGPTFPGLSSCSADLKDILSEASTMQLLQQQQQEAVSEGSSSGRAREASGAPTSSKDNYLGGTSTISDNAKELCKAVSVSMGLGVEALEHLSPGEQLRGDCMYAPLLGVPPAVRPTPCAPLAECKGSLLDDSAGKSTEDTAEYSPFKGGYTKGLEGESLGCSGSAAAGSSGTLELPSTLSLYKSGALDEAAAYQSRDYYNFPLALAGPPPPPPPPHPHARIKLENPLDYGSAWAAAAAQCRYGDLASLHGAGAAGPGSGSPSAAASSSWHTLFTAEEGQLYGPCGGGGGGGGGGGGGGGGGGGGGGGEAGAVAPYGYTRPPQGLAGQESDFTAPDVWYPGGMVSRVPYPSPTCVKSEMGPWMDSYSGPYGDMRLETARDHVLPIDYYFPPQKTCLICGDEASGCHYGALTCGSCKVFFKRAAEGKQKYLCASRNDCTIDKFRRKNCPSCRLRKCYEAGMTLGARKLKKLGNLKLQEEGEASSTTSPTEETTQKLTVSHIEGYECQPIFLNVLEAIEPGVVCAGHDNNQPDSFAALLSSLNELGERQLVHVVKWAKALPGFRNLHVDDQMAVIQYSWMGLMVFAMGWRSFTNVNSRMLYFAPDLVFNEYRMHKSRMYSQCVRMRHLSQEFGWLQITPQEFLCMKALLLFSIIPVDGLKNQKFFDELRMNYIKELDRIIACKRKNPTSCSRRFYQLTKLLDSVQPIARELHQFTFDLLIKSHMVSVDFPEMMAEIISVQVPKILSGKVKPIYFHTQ
- ASSAY_PROTOCOL: Investigation of antagonist effect on androgen receptor (reporter gene assay, 11A11B2 cells, with DHT)
- Assay type: cell-based
Please respond with class 1 when measured IC50 is strictly beneath 300 nM, and with class 0 in all other cases.

compound="CC1(C)C(=O)N(c2ccc(C#N)c(C(F)(F)F)c2)C(=S)N1c1ccc(NC(=O)OCC(O)CO)nc1 (stereo not drawn) [Example 70]" discrete_label="class 0"
compound="CC1(C)C(=O)N(c2ccc(C#N)c(Cl)c2)C(=S)N1c1ccc2sc(NC(N)=O)nc2c1 [Example 20]" discrete_label="class 1"
compound="CN(C)CCOC(=O)Nc1cc(N2C(=O)N(c3ccc(C#N)c(Cl)c3)C(=O)C2(C)C)ccc1Cl [Example 31]" discrete_label="class 0"
compound="CN(C)CCOC(=O)Nc1ccc(N2C(=S)N(c3ccc(C#N)c(Cl)c3)C(=O)C2(C)C)cn1 [Example 69]" discrete_label="class 0"
compound="CCOC(=O)N1CCC(N2C(=S)N(c3ccc(C#N)c(Cl)c3)C(=O)C2(C)C)CC1 [Example 2]" discrete_label="class 1"
compound="CCCNC(=O)N1CCC(N2C(=S)N(c3ccc(C#N)c(Cl)c3)C(=O)C2(C)C)CC1 [Example 41]" discrete_label="class 0"
compound="CN(C)CCOC(=O)N1CCC(N2C(=S)N(c3ccc(C#N)c(C(F)(F)F)c3)C(=O)C2(C)C)CC1 [Example 36]" discrete_label="class 0"
compound="CN(C)CCOC(=O)Nc1ccc(N2C(=S)N(c3ccc(C#N)c(C(F)(F)F)c3)C(=O)C2(C)C)cn1 [Example 58]" discrete_label="class 0"
